Here the recorded pIC50 is given for each entry.
System: CHO
Test Method Notes: Cytotoxicity against CHO cells
Format: cell-based
Condition Details: Cricetulus griseus
pIC50: −log10 of the molar value.
Endpoint: pIC50

smiles_string=CCCCCCCCCCCCCCNC(=O)/C(CCC=C(C)C)=C1\[C@@H](OC(C)=O)C[C@@]2(C)[C@H]1C[C@@H](O)[C@H]1[C@@]3(C)CC[C@@H](O)[C@@H](C)[C@@H]3CC[C@@]12C comparator=< result=3.85
smiles_string=CC(=O)O[C@H]1C[C@@]2(C)[C@@H](C[C@@H](O)[C@H]3[C@@]4(C)CC[C@@H](O)[C@@H](C)[C@@H]4CC[C@@]32C)/C1=C(\CCC=C(C)C)C(=O)Oc1ccc(Br)cc1 comparator== result=4.02
smiles_string=CCCCCCCCCCCCOC(=O)/C(CCC=C(C)C)=C1\[C@@H](OC(C)=O)C[C@@]2(C)[C@H]1C[C@@H](O)[C@H]1[C@@]3(C)CC[C@@H](O)[C@@H](C)[C@@H]3CC[C@@]12C comparator=< result=3.84
smiles_string=COc1cccc(OC(=O)/C(CCC=C(C)C)=C2\[C@@H](OC(C)=O)C[C@@]3(C)[C@H]2C[C@@H](O)[C@H]2[C@@]4(C)CC[C@@H](O)[C@@H](C)[C@@H]4CC[C@@]23C)c1 comparator== result=4.06
smiles_string=CC(=O)O[C@H]1C[C@@]2(C)[C@@H](C[C@@H](O)[C@H]3[C@@]4(C)CC[C@@H](O)[C@@H](C)[C@@H]4CC[C@@]32C)/C1=C(\CCC=C(C)C)C(=O)Oc1ccccc1 comparator== result=4.00
smiles_string=CCCCCCCCCCCCNC(=O)/C(CCC=C(C)C)=C1\[C@@H](OC(C)=O)C[C@@]2(C)[C@H]1C[C@@H](O)[C@H]1[C@@]3(C)CC[C@@H](O)[C@@H](C)[C@@H]3CC[C@@]12C comparator=< result=3.84
smiles_string=CCCCOC(=O)/C(CCC=C(C)C)=C1\[C@@H](OC(C)=O)C[C@@]2(C)[C@H]1C[C@@H](O)[C@H]1[C@@]3(C)CC[C@@H](O)[C@@H](C)[C@@H]3CC[C@@]12C comparator== result=4.43
smiles_string=CC(=O)O[C@H]1C[C@@]2(C)[C@@H](C[C@@H](O)[C@H]3[C@@]4(C)CC[C@@H](O)[C@@H](C)[C@@H]4CC[C@@]32C)/C1=C(\CCC=C(C)C)C(=O)Oc1ccc(Cl)c(Cl)c1 comparator== result=4.02
smiles_string=CC(=O)O[C@H]1C[C@@]2(C)[C@@H](C[C@@H](O)[C@H]3[C@@]4(C)CC[C@@H](O)[C@@H](C)[C@@H]4CC[C@@]32C)/C1=C(\CCC=C(C)C)C(=O)Oc1ccc(Cl)cc1 comparator== result=4.15
smiles_string=CC(=O)O[C@H]1C[C@@]2(C)[C@@H](C[C@@H](O)[C@H]3[C@@]4(C)CC[C@@H](O)[C@@H](C)[C@@H]4CC[C@@]32C)/C1=C(\CCC=C(C)C)C(=O)Oc1ccc(Cl)cc1Cl comparator== result=4.00
